Test system: ENR+CD organoids
protocol_text: Primary screen: ATP (CellTiter-Glo 3D, CTG) cell number/viability, 2.5-D 384-well ENR+CD organoids;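 further: compounds given at plating and again on day 3 over a 6-day differentiation from ENR+CV stem-cell-enriched precursors, ATP measured on day 6, plate median as control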
condition_parameters: primary screen, dose 0.40 uM
readout_kind: Dose.FC.CTG (log2 fold change)
Output spec: single numeric token, no unit.

The cases that follow already have their Dose.FC.CTG (log2 fold change) on record.
{"columns": ["molecule_smiles", "system_name", "Dose.FC.CTG (log2 fold change)"],
 "data": [
  ["Cc1cc(Nc2ncc(Cl)c(Nc3ccccc3S(=O)(=O)C(C)C)n2)c(OC(C)C)cc1C1CCNCC1", "ENR+CD organoids", 0.004],
  ["Nc1nc(OCc2cc(Br)cs2)c2[nH]cnc2n1", "ENR+CD organoids", "−0.309"]
]}

Asked: Could you tell me which Dose.FC.CTG (log2 fold change) is on file for `O=C(Nc1ccccc1)N1CCN(c2nc(-c3ccccc3)ns2)CC1` ?
Given back: −0.262

Asked: For `CC[C@H](C)C(=O)O[C@H]1C[C@@H](C)C=C2C=C[C@H](C)[C@H](CC[C@@H]3C[C@@H](O)CC(=O)O3)[C@H]21` , what is its reported Dose.FC.CTG (log2 fold change)?
Given back: −0.492

Asked: // returns reported Dose.FC.CTG (log2 fold change) for input `Cc1cnc(NC(=O)Nc2cc(Br)c(C)cc2OC[C@@H]2CNCCO2)cn1`
Given back: −0.238

Asked: Consider the compound `O=C(Nc1ccccc1)c1cc([N+](=O)[O-])ccc1Cl` and give its measured Dose.FC.CTG (log2 fold change).
Given back: 0.041

Asked: Param item = `C[C@@H](Oc1cc(-n2cnc3ccc(CN4CCN(C)CC4)cc32)sc1C(N)=O)c1ccccc1C(F)(F)F` ; retrieve measured Dose.FC.CTG (log2 fold change).
Given back: −0.154

Asked: // returns reported Dose.FC.CTG (log2 fold change) for input `O=C(/C=C\n1cnc(-c2cc(C(F)(F)F)cc(C(F)(F)F)c2)n1)NNc1cnccn1`
Given back: −0.657

* * *

Tested on: ENR+CD organoids (ISC to Paneth cell differentiation)
protocol_text: Primary screen: basal (non-stimulated) lysozyme secretion LYZ.NS, 2.5-D 384-well ENR+CD organoid differentiation
Assay type: cell-based, mouse
condition_parameters: primary screen, dose 2.00 uM
Values of Dose.FC.LYZ.NS (log2 fold change) greater than or equal to 0.02 map to YES; values below map to NO.

{"columns": ["compound", "assigned_class"],
 "data": [
  ["CCn1c(-c2nonc2N)nc2c(C#CC(C)(C)O)ncc(OC[C@H]3CCCNC3)c21 [GSK690693]", "YES"],
  ["CCn1c(=O)c2c(nc(/C=C/c3ccc(OC)c(OC)c3)n2C)n(CC)c1=O [Istradefylline]", "NO"]
]}

Asked: Identify whether the reported Dose.FC.LYZ.NS (log2 fold change) of the following compound is 0.02 or greater: CCc1cc(Nc2nccc(-c3c(-c4ccc(OC)c(C(=O)Nc5c(F)cccc5F)c4)nc4ccccn34)n2)c(OC)cc1N1CCC(N2CCN(S(C)(=O)=O)CC2)CC1 [GSK1904529A]
Given back: NO

Asked: Quick check, Dose.FC.LYZ.NS (log2 fold change) >= 0.02? CC(C)c1noc(N2CCC(COc3ccc(-c4ccc(S(C)(=O)=O)cc4)nc3)CC2)n1 [GSK1292263]
Given back: YES

Asked: Is Dose.FC.LYZ.NS (log2 fold change) at least 0.02? Consider CC(C)(C)Cn1c(N)nc2ccc(-c3[nH]c(C(C)(C)C)nc3-c3ccc(F)cc3)nc21 [LY2228820]
Given back: YES

Asked: Decide: Dose.FC.LYZ.NS (log2 fold change) of Cn1cc(/C=C2\C(=O)Nc3cccnc32)c2ccccc21 [GW441756] >= 0.02?
Given back: YES

Asked: Is Dose.FC.LYZ.NS (log2 fold change) for Clc1ccc(N/N=C(\c2ccccc2)c2ccccn2)nc1 [JIB-04] at or above 0.02?
Given back: NO

Asked: # bool: Dose.FC.LYZ.NS (log2 fold change) of CC#CCn1c(N2CCC[C@@H](N)C2)nc2c1c(=O)n(Cc1nc(C)c3ccccc3n1)c(=O)n2C [Linagliptin] >= 0.02
Given back: YES

Asked: Test whether the compound CC(C)c1onc(-c2c(Cl)cccc2Cl)c1COc1ccc(/C=C/c2cccc(C(=O)O)c2)c(Cl)c1 [GW4064] records Dose.FC.LYZ.NS (log2 fold change) of 0.02 or higher.
Given back: YES

Asked: State whether the measured Dose.FC.LYZ.NS (log2 fold change) reaches 0.02, counting equality as reaching it, for O=C1[C@H](Cc2ccc(O)cc2)N2C(=O)CCN(C(=O)NCc3ccccc3)[C@H]2CN1Cc1cccc2ccccc12 [ICG-001]
Given back: YES
